So I've got a bunch of compounds here, and I need their pest or weed control at 1000 g/ha values.
Test system: yellow nutsedge (Cyperus esculentus) (CYPES)
Assay: post-emergent herbicidal test, yellow nutsedge
Assay type: in vivo
Details: Cyperus, post-emergence, post-emergent, 1.0 kg/ha (*), 17-21 days after application; read-out: CYPES percent control
Give the number; % is assumed, so skip it.

### Prompt Item under review: CCN(CC)CC(P(=O)(O)O)P(=O)(O)O . Reported pest or weed control at 1000 g/ha?
### Response 5

### Prompt Item under review: O=P(O)(O)C(CN1CCCCCC1)P(=O)(O)O . Reported pest or weed control at 1000 g/ha?
### Response 0

### Prompt Item under review: O=P(O)(O)C(CN1CCCC1)P(=O)(O)O . Reported pest or weed control at 1000 g/ha?
### Response 5

### Prompt Item under review: CCCCN(CCCC)CC(P(=O)(O)O)P(=O)(O)O . Reported pest or weed control at 1000 g/ha?
### Response 10

### Prompt Item under review: CCCCN(CCC)CC(P(=O)(O)O)P(=O)(O)O . Reported pest or weed control at 1000 g/ha?
### Response 20

### Prompt Item under review: CCCN(CC(C)C)CC(P(=O)(O)O)P(=O)(O)O . Reported pest or weed control at 1000 g/ha?
### Response 5

### Prompt Item under review: CCCN(CCC(=O)O)CC(P(=O)(O)O)P(=O)(O)O . Reported pest or weed control at 1000 g/ha?
### Response 0

### Prompt Item under review: O=P(O)(O)C(CNC1Cc2ccccc2C1)P(=O)(O)O . Reported pest or weed control at 1000 g/ha?
### Response 10
